Each item that follows carries a reported pIC50.
tested on: SK-OV-3; assay: Antiproliferative activity against human SKOV3 cells after 48 hrs by MTT assay; format: functional, cell-based; settings: SK-OV-3, 48 h
Units for pIC50: none; it is -log10 of a concentration expressed in mol/L.

Examples with answers:
chemical_string=CCOc1ccc(-c2nc(NC(C)=O)sc2-c2cc(OC)c(OC)c(OC)c2)cc1 subject_of_test=SK-OV-3 observation_type=pIC50 result_value=6.78
chemical_string=CCOc1ccc(-c2nc(C=O)sc2-c2cc(OC)c(OC)c(OC)c2)cc1 subject_of_test=SK-OV-3 observation_type=pIC50 result_value=8.05

INPUT: Record lookup: for SK-OV-3, what pIC50 belongs to CCNC(=O)Nc1nc(-c2ccc(OCC)cc2)c(-c2cc(OC)c(OC)c(OC)c2)s1 ?
OUTPUT: 7.53

* * *

biological target: Tubulin (Homo sapiens) (UniProt P68371+Q9H4B7+P0DPH7+P68366+Q13509+Q71U36+P04350+Q3ZCM7+P07437+P68363+Q9BQE3+Q6PEY2+Q13885+Q9BVA1+Q9BUF5); experiment: Binding affinity to tubulin in human HepG2 cells at 5 uM after 4 hrs by EBI competition assay; format: cell-based
Activity calls are given as the source filed them. The rule behind the calls is not given here.
observation type: Activity

chemical_string=CCOc1ccc(-c2ncsc2-c2cc(OC)c(OC)c(OC)c2)cc1 observation_type=Activity result_value=inactive
chemical_string=CCCC(=O)Nc1nc(-c2ccc(OCC)cc2)c(-c2cc(OC)c(OC)c(OC)c2)s1 observation_type=Activity result_value=inactive
chemical_string=CCOc1ccc(-c2nc(N)sc2-c2cc(OC)c(OC)c(OC)c2)cc1 observation_type=Activity result_value=inactive
chemical_string=CCNC(=O)Nc1nc(-c2ccc(OCC)cc2)c(-c2cc(OC)c(OC)c(OC)c2)s1 observation_type=Activity result_value=inactive

* * *

system: SK-OV-3; test: Antiproliferative activity against human SKOV3 cells after 48 hrs by MTT assay; type: functional, cell-based; conditions: SK-OV-3, 48 h
pIC50: −log10 of the molar value.
Overview of recorded pIC50 for various molecules

chemical_string=CCOc1ccc(-c2nc(NS(=O)(=O)c3ccc(Br)cc3C(F)(F)F)sc2-c2cc(OC)c(OC)c(OC)c2)cc1 result_value="< 5.30"
chemical_string=CCOc1ccc(-c2nc(N(C)C)sc2-c2cc(OC)c(OC)c(OC)c2)cc1 result_value="< 5.30"
chemical_string=C=CCN(CC=C)c1nc(-c2ccc(OCC)cc2)c(-c2cc(OC)c(OC)c(OC)c2)s1 result_value="< 5.30"
chemical_string=CCOc1ccc(-c2nc(NC(=O)C(C)C)sc2-c2cc(OC)c(OC)c(OC)c2)cc1 result_value=7.07
chemical_string=CCOc1ccc(-c2nc(C)sc2-c2cc(OC)c(OC)c(OC)c2)cc1 result_value=7.17
chemical_string=CCOC(=O)c1nc(-c2ccc(OCC)cc2)c(-c2cc(OC)c(OC)c(OC)c2)s1 result_value="< 5.30"
chemical_string=CCCN(CCC)c1nc(-c2ccc(OCC)cc2)c(-c2cc(OC)c(OC)c(OC)c2)s1 result_value="< 5.30"
chemical_string=CCOc1ccc(-c2ncsc2-c2cc(OC)c(OC)c(OC)c2)cc1 result_value=8.00

INPUT: GET /values?readout=pIC50&system=SK-OV-3&item= CCOc1ccc(-c2nc(N)sc2-c2cc(OC)c(OC)c(OC)c2)cc1
OUTPUT: 7.85

INPUT: So what pIC50 did CCOc1ccc(-c2nc(NS(=O)(=O)c3ccc(OC)c(F)c3)sc2-c2cc(OC)c(OC)c(OC)c2)cc1 get with SK-OV-3?
OUTPUT: < 5.30

INPUT: Tell me reported pIC50 for CCOc1ccc(-c2nc(NS(=O)(=O)c3ccsc3Cl)sc2-c2cc(OC)c(OC)c(OC)c2)cc1 , tested with SK-OV-3.
OUTPUT: < 5.30

INPUT: GET /values?readout=pIC50&system=SK-OV-3&item= COc1ccc(-c2nc(N)sc2-c2cc(OC)c(OC)c(OC)c2)cc1
OUTPUT: 6.96

INPUT: Could you share what pIC50 was measured for CCOc1ccc(-c2nc(N(Cc3ccccc3)Cc3ccccc3)sc2-c2cc(OC)c(OC)c(OC)c2)cc1 , tested on SK-OV-3?
OUTPUT: < 5.30

INPUT: Param readout= pIC50; system= SK-OV-3; entry= CCOc1ccc(-c2nc(NS(=O)(=O)c3ccc([N+](=O)[O-])cc3OC)sc2-c2cc(OC)c(OC)c(OC)c2)cc1 ; returns value.
OUTPUT: < 5.30

INPUT: Item CCOc1ccc(-c2nc(N(CC)CC)sc2-c2cc(OC)c(OC)c(OC)c2)cc1 with SK-OV-3 - pIC50?
OUTPUT: < 5.30

INPUT: Under SK-OV-3: pIC50 value of CCOc1ccc(-c2nc(NS(=O)(=O)c3ccc(C)c(C)c3)sc2-c2cc(OC)c(OC)c(OC)c2)cc1 ?
OUTPUT: < 5.30
